Listed compounds paired with reported EC50
# System: HIV-1 NL4-3 strain
# Method description: Evaluation of antiviral activity: acute infection system of MT-4 cell with HIV-1 NL4-3 strain
# Format: cell-based
# Condition summary: Human immunodeficiency virus 1, NL43, MT4, 120 h, MT-4 cells infected with HIV-1 NL4-3 strain (MOI 0.05), cultured 5 days, Cell Titer-Glo; read-out: antiviral activity (EC50)
Structures can show the parent of a compound that is named as a salt.
The response must be a number in nM with no trailing unit.

Field: example entries. Status: answers known.
{"Compound": "CCN1C(=O)c2c(O)c(=O)c(C(=O)NCc3cccc(Cl)c3F)cn2C[C@]12C[C@@H](CO)C2 [Example S58, hydrochloride]", "Measured quantity": "EC50", "Endpoint value": 6.8}
{"Compound": "COC[C@H]1C[C@]2(CN(C)C(=O)c3c(OC(=O)CN(C)C)c(=O)c(C(=O)NCc4cccc(Cl)c4F)cn32)C1 [Example S73, dihydrochloride]", "Measured quantity": "EC50", "Endpoint value": 1.1}
{"Compound": "CCO[C@H]1C[C@@]2(Cn3cc(C(=O)NCc4cccc(Cl)c4F)c(=O)c(O)c3C(=O)N2CC)C1 [Example S56, hydrochloride]", "Measured quantity": "EC50", "Endpoint value": 5.1}

stdin: // fetch EC50 for CO[C@H]1C[C@@]2(Cn3cc(C(=O)NCc4ccc(F)cc4F)c(=O)c(O)c3C(=O)N2C(C)C)C1 [Example S52, hydrochloride] ; system: HIV-1 NL4-3 strain
stdout: 3.5
